Below, each entry is listed with its recorded inhibition at 1 µM.
- TESTED_TARGET: ROCK2 protein (Homo sapiens)
- Sequence (O75116 whole entry): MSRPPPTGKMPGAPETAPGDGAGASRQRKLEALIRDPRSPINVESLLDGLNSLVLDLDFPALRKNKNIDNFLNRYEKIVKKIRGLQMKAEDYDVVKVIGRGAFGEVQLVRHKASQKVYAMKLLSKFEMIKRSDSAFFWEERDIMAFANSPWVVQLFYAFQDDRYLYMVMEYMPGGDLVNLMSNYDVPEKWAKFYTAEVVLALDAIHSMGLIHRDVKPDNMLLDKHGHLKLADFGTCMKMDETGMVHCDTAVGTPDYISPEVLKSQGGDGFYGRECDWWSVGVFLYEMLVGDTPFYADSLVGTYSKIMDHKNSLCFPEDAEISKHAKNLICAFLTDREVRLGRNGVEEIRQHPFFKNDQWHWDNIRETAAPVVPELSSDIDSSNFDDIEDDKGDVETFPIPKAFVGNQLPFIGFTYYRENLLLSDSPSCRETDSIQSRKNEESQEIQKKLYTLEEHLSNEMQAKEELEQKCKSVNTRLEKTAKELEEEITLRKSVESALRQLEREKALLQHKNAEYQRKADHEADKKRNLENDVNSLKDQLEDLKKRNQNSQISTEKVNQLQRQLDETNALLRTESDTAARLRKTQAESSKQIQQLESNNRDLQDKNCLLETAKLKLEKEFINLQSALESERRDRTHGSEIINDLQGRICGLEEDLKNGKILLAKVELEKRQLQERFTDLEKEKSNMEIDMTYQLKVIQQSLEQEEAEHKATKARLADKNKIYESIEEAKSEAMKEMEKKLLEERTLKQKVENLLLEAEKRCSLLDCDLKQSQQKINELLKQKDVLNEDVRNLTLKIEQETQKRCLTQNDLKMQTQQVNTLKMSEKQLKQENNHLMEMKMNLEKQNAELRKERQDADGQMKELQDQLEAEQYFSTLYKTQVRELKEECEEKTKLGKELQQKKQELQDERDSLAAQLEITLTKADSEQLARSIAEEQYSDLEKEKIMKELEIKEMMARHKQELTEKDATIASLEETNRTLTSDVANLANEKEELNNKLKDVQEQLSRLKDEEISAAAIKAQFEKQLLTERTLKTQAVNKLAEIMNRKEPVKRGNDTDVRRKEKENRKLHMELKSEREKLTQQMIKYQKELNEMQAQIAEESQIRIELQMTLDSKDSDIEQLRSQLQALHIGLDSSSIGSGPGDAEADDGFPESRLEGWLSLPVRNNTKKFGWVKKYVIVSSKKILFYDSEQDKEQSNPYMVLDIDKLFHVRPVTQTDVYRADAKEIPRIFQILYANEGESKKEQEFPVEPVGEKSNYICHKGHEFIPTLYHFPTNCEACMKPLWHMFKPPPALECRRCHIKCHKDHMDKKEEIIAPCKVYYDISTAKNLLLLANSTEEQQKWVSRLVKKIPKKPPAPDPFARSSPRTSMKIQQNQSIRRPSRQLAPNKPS
- TEST_SUMMARY: Degradation inducing activity of ROCK2 protein in HUVEC cells, Western blotting (Simple Western JESS)
- Assay type: cell-based
- Set-up: endogenous in cells; host or cells: HUVEC (ATCC CRL-1730)
- MEASUREMENT_SETUP: HUVEC, 24 h, degradation rate at 1 µM

Look over these answered cases.
COC[C@H]1CN[C@H](C)CN1CC(=O)N1CC(C)(C)c2nc(CN(C)CCOCCOCCOCCN[C@H](Cc3cccc(F)c3)C(=O)Nc3ccc(-c4ccncc4)cc3)c(Cc3ccc(F)cc3)cc21: 50 to 75%
C[C@@H]1CN(CC(=O)N2CC(C)(C)c3ncc(Cc4ccc(F)cc4)cc32)[C@@H](CN(C)CCOCCOCCOCCOCCOCCOCCN[C@H](C)c2ccc(C(=O)Nc3ccncc3)cc2)CN1: 50 to 75%

Attention now turns to another entry.
Return reported inhibition at 1 µM. Input compound: COC[C@H]1CN[C@H](C)CN1CC(=O)N1CC(C)(C)c2ncc(Cc3cccc(OCCOCCOCCOCCOCCNC[C@@H](C(=O)Nc4ccc5cnccc5c4)c4ccccc4)c3)cc21 25 to 50%
